Every entry's value here was drawn from patent US10077241B2.

- tgt: TGR5 (NCI-H716 cell line) (Homo sapiens, UniProt Q8TDU6)
- Sequence (Q8TDU6 1-330): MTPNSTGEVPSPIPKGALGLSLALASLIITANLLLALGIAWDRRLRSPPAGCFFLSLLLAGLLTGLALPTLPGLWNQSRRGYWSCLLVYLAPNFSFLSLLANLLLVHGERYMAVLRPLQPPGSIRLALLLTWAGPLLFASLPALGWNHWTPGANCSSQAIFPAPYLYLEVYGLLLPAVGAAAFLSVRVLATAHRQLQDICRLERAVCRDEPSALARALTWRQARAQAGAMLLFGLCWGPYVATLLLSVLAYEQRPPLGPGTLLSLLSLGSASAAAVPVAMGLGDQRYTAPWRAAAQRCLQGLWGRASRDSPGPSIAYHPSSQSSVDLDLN
- assay-explanation: NCI-H716 cAMP Agonist EC50 Determination
Structures can show the parent of a compound that is named as a salt.
Recorded EC50 for the following molecules

Consider the following illustrative entries.
{"molecule": "COc1ccc(C2CCCc3nc(SCc4c(F)cc(C#N)cc4F)n(-c4ccc(F)cc4)c32)cc1OC (stereo not shown)", "EC50": "5.34 µM"}
{"molecule": "COc1ccc(C2(C)CCCc3nc(SCc4c(F)cc(C(N)=O)cc4F)n(-c4ccc(F)cc4)c32)cc1OC (stereo not shown)", "EC50": "0.9 µM"}

Form: item COc1cc(C2CCCc3nc(SCc4c(F)cccc4C(F)(F)F)n(-c4ccc(F)cc4)c32)ccc1Cl (stereo not shown) ; test system TGR5 (NCI-H716 cell line) (Homo sapiens, UniProt Q8TDU6); EC50: > 50 µM

Form: item CNC(=O)c1cc(F)c(CSc2nc3c(n2-c2ccc(F)cc2)C(C)(c2ccc(Cl)c(OC)c2)CCC3)c(F)c1 (stereo not shown) ; test system TGR5 (NCI-H716 cell line) (Homo sapiens, UniProt Q8TDU6); EC50: > 50 µM

Form: item COc1cc(C2(C)CCCc3nc(SCc4ccccc4)n(-c4ccc(F)cc4)c32)ccc1Cl (stereo not shown) ; test system TGR5 (NCI-H716 cell line) (Homo sapiens, UniProt Q8TDU6); EC50: > 50 µM

Form: item COc1cc(C2CC(C)Cc3nc(SCc4c(F)cccc4Cl)n(-c4ccc(F)cc4)c32)ccc1Cl (stereo not shown) ; test system TGR5 (NCI-H716 cell line) (Homo sapiens, UniProt Q8TDU6); EC50: > 50 µM

Form: item COc1cc(C2CCCc3nc(SCc4c(F)cc(OCCOCCOCCN(C)C)cc4F)n(-c4ccc(F)cc4)c32)ccc1Cl (stereo not shown) [Example 33, hydrochloride] ; test system TGR5 (NCI-H716 cell line) (Homo sapiens, UniProt Q8TDU6); EC50: > 50 µM

* * *

- tgt: TGR5 (NCI-H716 cell line) (Homo sapiens, UniProt Q8TDU6)
- assay-explanation: NCI-H716 cAMP Agonist EC50 Determination
Counter-ions that a name gives are not always drawn.
Recorded EC50 for the following compounds

Consider the following illustrative entries.
{"compound": "COc1cc(C2(C)CCCc3nc(SCc4c(F)cc(C(=O)N5CCOCC5)cc4F)n(-c4ccc(F)cc4)c32)ccc1F (stereo not shown)", "tgt": "TGR5 (NCI-H716 cell line) (Homo sapiens, UniProt Q8TDU6)", "EC50": "18.8 µM"}
{"compound": "COCCOCCOCCOCCNC(=O)c1cc(F)c(CSc2nc3c(n2-c2ccc(F)cc2)C(c2cc(OC)c(OC)c(Br)c2Br)CCC3)c(F)c1 (stereo not shown) [Example 68b]", "tgt": "TGR5 (NCI-H716 cell line) (Homo sapiens, UniProt Q8TDU6)", "EC50": "> 50 µM"}
{"compound": "COc1cc(C2(C)CCCc3nc(SCc4c(F)cc(C(=O)O)cc4F)n(-c4ccc(F)cc4)c32)ccc1F (stereo not shown)", "tgt": "TGR5 (NCI-H716 cell line) (Homo sapiens, UniProt Q8TDU6)", "EC50": "> 50 µM"}
{"compound": "COc1cc(C2CCCc3nc(SCc4c(F)cc(C#N)cc4F)n(-c4ccc(F)cc4)c32)ccc1F (stereo not shown)", "tgt": "TGR5 (NCI-H716 cell line) (Homo sapiens, UniProt Q8TDU6)", "EC50": "47.5 µM"}
{"compound": "COc1cc(C2CCCc3nc(SCc4c(F)cc(OCCOCCN(C)C)cc4F)n(-c4ccc(F)cc4)c32)ccc1Cl (stereo not shown) [Example 34, hydrochloride]", "tgt": "TGR5 (NCI-H716 cell line) (Homo sapiens, UniProt Q8TDU6)", "EC50": "> 50 µM"}
{"compound": "COc1cc(C2(C)CCCc3nc(SCc4c(F)cc(-c5nnn[nH]5)cc4F)n(-c4ccc(F)cc4)c32)ccc1F (stereo not shown)", "tgt": "TGR5 (NCI-H716 cell line) (Homo sapiens, UniProt Q8TDU6)", "EC50": "> 50 µM"}

Form: item COc1cc(C2(C)CCCc3nc(SCc4c(F)cc(C(=O)N[C@@H](CCCNC(=N)N)C(=O)O)cc4F)n(-c4ccc(F)cc4)c32)ccc1Cl (stereo partly shown) ; test system TGR5 (NCI-H716 cell line) (Homo sapiens, UniProt Q8TDU6); EC50: 17.2 µM

Form: item COc1ccc(C2CCCc3nc(SCc4c(F)cc(C(=O)O)cc4F)n(-c4ccc(F)cc4)c32)cc1OC (stereo not shown) ; test system TGR5 (NCI-H716 cell line) (Homo sapiens, UniProt Q8TDU6); EC50: > 50 µM

Form: item COc1cc(C2CCCc3nc(SCc4ccncc4F)n(-c4ccc(F)cc4)c32)ccc1Cl (stereo not shown) ; test system TGR5 (NCI-H716 cell line) (Homo sapiens, UniProt Q8TDU6); EC50: > 50 µM

Form: item COc1cc(C2(C)CCCc3nc(SCc4c(F)cc(C#N)cc4F)n(-c4ccc(F)cc4)c32)ccc1Cl (stereo not shown) ; test system TGR5 (NCI-H716 cell line) (Homo sapiens, UniProt Q8TDU6); EC50: > 50 µM

Form: item C/N=C(\N)NCCCc1cc(F)c(CSc2nc3c(n2-c2ccc(F)cc2)C(c2ccc(Cl)c(OC)c2)CCC3)c(F)c1 (stereo not shown) [Example 39a, hydrochloride] ; test system TGR5 (NCI-H716 cell line) (Homo sapiens, UniProt Q8TDU6); EC50: > 50 µM

Form: item COc1cc(C2CCCc3nc(SCc4ncccc4F)n(-c4ccc(F)cc4)c32)ccc1Cl (stereo not shown) ; test system TGR5 (NCI-H716 cell line) (Homo sapiens, UniProt Q8TDU6); EC50: > 50 µM

Form: item COc1cc(C2(C)CCCc3nc(SCc4ccncc4)n(-c4ccc(F)cc4)c32)ccc1Cl (stereo not shown) ; test system TGR5 (NCI-H716 cell line) (Homo sapiens, UniProt Q8TDU6); EC50: > 50 µM

* * *

- tgt: TGR5 (STC1 cell line) (Mus musculus, UniProt Q80SS6)
- Sequence (Q80SS6 whole entry): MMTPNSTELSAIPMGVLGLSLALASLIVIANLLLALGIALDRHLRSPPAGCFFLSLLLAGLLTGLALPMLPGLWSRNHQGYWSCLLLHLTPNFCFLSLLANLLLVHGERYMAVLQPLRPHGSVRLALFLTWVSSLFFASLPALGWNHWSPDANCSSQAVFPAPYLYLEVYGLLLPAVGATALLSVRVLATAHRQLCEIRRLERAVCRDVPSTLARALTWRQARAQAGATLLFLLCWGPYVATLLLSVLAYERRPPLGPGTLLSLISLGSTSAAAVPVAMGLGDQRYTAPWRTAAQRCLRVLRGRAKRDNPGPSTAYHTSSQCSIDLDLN
- assay-explanation: STC1 cAMP Agonist EC50 Determination
Recorded log10 EC50 for the following compounds
log10 EC50, nM

// sample COc1cc(C2CCCc3nc(SCc4c(F)cc(C(=O)O)cc4F)n(-c4ccc(F)cc4)c32)ccc1F (stereo not drawn) , its log10 EC50 was 3.04

// sample C=C1COC(c2ccc(Cl)c(OC)c2)c2c1nc(SCc1c(F)cccc1Cl)n2-c1ccc(F)cc1 (stereo not drawn) , its log10 EC50 was 2.94

// sample COc1cc(C2(C)CCCc3nc(SCc4c(F)cc(C(=O)N(C)C)cc4F)n(-c4ccc(F)cc4)c32)ccc1Cl (stereo not drawn) , its log10 EC50 was 2.08

// sample COc1cc(C2CCCc3nc(SCc4c(F)cc(OCCN(C)C)cc4F)n(-c4ccc(F)cc4)c32)ccc1Cl (stereo not drawn) , its log10 EC50 was 3.59

// sample COCCOCCOCCOCCNC(=O)c1cc(F)c(CSc2nc3c(n2-c2ccc(F)cc2)C(c2cc(OC)c(OC)cc2Br)CCC3)c(F)c1 (stereo not drawn) [Example 68a] , its log10 EC50 was 3.87

* * *

- tgt: TGR5 (NCI-H716 cell line) (Homo sapiens)
- assay-explanation: NCI-H716 cAMP Agonist EC50 Determination
pEC50: −log10 of the molar value.
Quick rule: pEC50 of at least 5 means yes, below that means no.

Use these answered entries as a reference point.
{"molecule": "COc1ccc(C2(C)CCCc3nc(SCc4c(F)cc(OCCCl)cc4F)n(-c4ccc(F)cc4)c32)cc1OC (centres unmarked)", "class-name": "yes"}
{"molecule": "COc1ccc(C2(C)CCCc3nc(SCc4c(Cl)cccc4Cl)n(-c4ccc(F)cc4)c32)cc1OC (centres unmarked)", "class-name": "no"}
{"molecule": "COc1cc(C2(C)CCCc3nc(SCc4c(F)cc(C(=O)NCCO)cc4F)n(-c4ccc(F)cc4)c32)ccc1Cl (centres unmarked)", "class-name": "no"}
{"molecule": "COc1cc(C2(C)CCCc3nc(SCc4c(F)cc(-c5nn[nH]n5)cc4F)n(-c4ccc(F)cc4)c32)ccc1Cl (centres unmarked)", "class-name": "no"}
{"molecule": "COc1cc(C2(C)CCCc3nc(SCc4c(F)cc(OCCN(C)C)cc4F)n(-c4ccc(F)cc4)c32)ccc1Cl (centres unmarked)", "class-name": "no"}
{"molecule": "COc1cc(C2CCCc3nc(SCc4c(Br)cncc4Br)n(-c4ccc(F)cc4)c32)ccc1Cl (centres unmarked)", "class-name": "no"}
{"molecule": "COc1cc(C2CCCc3nc(SCc4c(F)cncc4Cl)n(-c4ccc(F)cc4)c32)ccc1Cl (centres unmarked)", "class-name": "no"}
{"molecule": "COc1cc(C2CCCc3nc(SCc4c(F)cccc4Cl)n(-c4ccc(F)c(F)c4F)c32)ccc1Cl (centres unmarked)", "class-name": "no"}
{"molecule": "COc1cc(C2CCCc3nc(SCc4c(F)cccc4Cl)n(-c4cc(F)c(F)cc4F)c32)ccc1Cl (centres unmarked)", "class-name": "no"}
{"molecule": "COC(=O)[C@H](CCCNC(=N)N)NC(=O)c1cc(F)c(CSc2nc3c(n2-c2ccc(F)cc2)C(C)(c2ccc(Cl)c(OC)c2)CCC3)c(F)c1 (some centres unmarked)", "class-name": "no"}

Data request: Tell me whether pEC50 is at least 5 here: COc1ccc(C2(C)CCCc3nc(SCc4c(F)cc(CCN(C)C)cc4F)n(-c4ccc(F)cc4)c32)cc1OC (centres unmarked)
Data returned: yes

Data request: Tell me whether pEC50 is at least 5 here: C=C1COC(c2ccc(F)c(OC)c2)c2c1nc(SCc1c(F)cccc1Cl)n2-c1ccc(F)cc1 (centres unmarked)
Data returned: no

Data request: Tell me whether pEC50 is at least 5 here: COCCOCCOCCOCCNC(=O)c1cc(F)c(CSc2nc3c(n2-c2ccc(F)cc2)C(c2ccc(F)c(OC)c2)CCC3)c(F)c1 (centres unmarked)
Data returned: no

Data request: Tell me whether pEC50 is at least 5 here: COc1ccc(C2(C)CCCc3nc(SCc4c(F)cc(CCN5CCOCC5)cc4F)n(-c4ccc(F)cc4)c32)cc1OC (centres unmarked)
Data returned: yes

Data request: Tell me whether pEC50 is at least 5 here: COc1cc(C2CCCc3nc(SCc4c(F)ccc(F)c4Cl)n(-c4ccc(F)cc4)c32)ccc1Cl (centres unmarked)
Data returned: no
